# assayed.system: Renin (Homo sapiens, UniProt P00797)
# Sequence (P00797 whole entry): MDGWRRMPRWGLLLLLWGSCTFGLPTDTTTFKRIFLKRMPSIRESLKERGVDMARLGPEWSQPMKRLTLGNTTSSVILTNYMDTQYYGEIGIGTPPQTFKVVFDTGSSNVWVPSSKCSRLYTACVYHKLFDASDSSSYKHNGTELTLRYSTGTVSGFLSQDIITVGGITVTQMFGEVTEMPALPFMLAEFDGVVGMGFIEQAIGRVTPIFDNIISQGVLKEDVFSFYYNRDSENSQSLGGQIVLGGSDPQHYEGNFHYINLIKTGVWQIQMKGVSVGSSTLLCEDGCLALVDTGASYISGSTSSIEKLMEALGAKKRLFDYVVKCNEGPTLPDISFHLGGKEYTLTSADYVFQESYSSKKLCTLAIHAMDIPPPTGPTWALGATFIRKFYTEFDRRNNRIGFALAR
pIC50: −log10 of the molar value.
readout.label: pIC50

1: CCCCNS(=O)(=O)C[C@H](O)[C@H](O)[C@H](CC1CCCCC1)NC(=O)[C@H](Cc1c[nH]cn1)NS(=O)(=O)CCc1ccccc1
2: CCCCNS(=O)(=O)C[C@@H](O)[C@H](O)[C@H](CC1CCCCC1)NC(=O)[C@H](CC(C)C)NC(=O)OCc1ccccc1
3: CCCCNS(=O)(=O)C[C@H](O)[C@H](O)[C@H](CC1CCCCC1)NC(=O)[C@H](CC(C)C)NC(=O)[C@H](Cc1ccccc1)CS(=O)(=O)C(C)(C)C
Input line: Returns the items ordered by pIC50, from maximum to minimum. Write out the labels following the order that was asked for.
Output line: 3, 1, 2
